# Assay explanation: solvent given as SMILES
# Test context: in ClCCCl
Readout label: fluorescence lifetime (ns)

| Compound | Unit symbol | Recorded measurement |
| --- | --- | --- |
| Cc1cccc2nc3c(=O)[nH]c(=O)[nH]c3nc12 | ns | 0.74 |

A = Cc1ccc2nc3[nH]c(=O)[nH]c(=O)c3nc2c1
B = CCn1c(=O)nc2n(C)c3cc(C)ccc3nc-2c1=O
C = N#Cc1ccc2nc3[nH]c(=O)[nH]c(=O)c3nc2c1
Q: Arrange the 3 molecules by rising fluorescence lifetime, starting with the smallest. Sort the labels as requested; that list is your answer.
Ans: C, A, B

Reference for the values: the Deep4Chem optical property database
